These entries and their values trace back to ChEMBL document CHEMBL1144707.

tested on: HL-60; experiment: Cytotoxicity against human HL60 cells; format: functional, cell-based
PROPERTY NAME: IC50 (µg/mL)
Please give a number only; it is taken to be in µg/mL.

INSERT INTO results (chemical_string, property_name, result_value) VALUES
  ('CC/C=C/[C@H](CC)C[C@]1(CC)C=C(CC)/C(=C/C(=O)OC)O1', 'IC50', 8.6),
  ('CC/C=C/[C@H](CC)C[C@@]1(C)C[C@@H](CC)[C@@H](CC(=O)OC)OO1', 'IC50', 13.3);

Now for the compound whose IC50 we want.
Exam item: Quick check: IC50 on HL-60, item "CCCC[C@H](CC)C[C@]1(CC)C=C(CC)/C(=C\C(=O)OC)O1" ?
Marked response: 15.2
